Listed next: entries and their corresponding EC50.
Tgt: hGPR120 (Homo sapiens, UniProt Q5NUL3)
Construct: expressed in transfected cells; host or cells: CHO-K1
Sequence (Q5NUL3 1-361): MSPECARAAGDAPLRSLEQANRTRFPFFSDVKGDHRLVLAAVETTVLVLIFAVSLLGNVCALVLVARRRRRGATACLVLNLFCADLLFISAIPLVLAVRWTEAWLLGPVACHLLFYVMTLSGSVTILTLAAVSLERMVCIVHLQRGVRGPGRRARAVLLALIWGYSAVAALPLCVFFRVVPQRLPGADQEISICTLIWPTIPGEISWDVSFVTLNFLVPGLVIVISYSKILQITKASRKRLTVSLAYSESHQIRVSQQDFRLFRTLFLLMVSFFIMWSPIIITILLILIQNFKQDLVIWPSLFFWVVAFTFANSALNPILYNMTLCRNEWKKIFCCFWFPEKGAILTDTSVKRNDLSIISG
Assay Text: Measurement of activity of GPR120 agonist (cell-based calcium fluorescence assay)
Experimental Parameters: CHO-K1 cells expressing Ga16 and hGPR120, Calcium 5 dye fluorescence; activity class; read-out: EC50
Measure: EC50

- CC(C)Sc1cccc(-c2ccc(OCCCC(=O)O)c(Cl)c2)n1 [Example 4]: 200 to 2000 nM
- Cc1cnc(OC2CCCC2)c(-c2ccc(SCCCC(=O)O)cc2)c1 [Example 181]: 200 to 2000 nM
- CN(C)CCOc1ncccc1-c1cc(F)c(OCCCC(=O)O)c(F)c1 [Example 203]: > 20000 nM
- O=C(O)CCCSc1ccc(-c2cccnc2OC2CCOCC2)cc1F [Example 244]: 200 to 2000 nM
- O=C(O)CCCOc1c(F)cc(-c2cccnc2NC2CC2)cc1F [Example 77]: > 20000 nM
- CC(C)Oc1ncccc1-c1ccc(SCCCCC(=O)O)cc1 [Example 255]: 200 to 2000 nM
- O=C(O)CCCSc1c(F)cc(-c2ccccc2NCC2CC2)cc1F [Example 162]: < 200 nM
- O=C(O)C1CC1COc1c(F)cc(-c2cccnc2SC2CCC2)cc1F (stereo not shown) [Example 60]: < 200 nM
- Cc1cc(F)c(OC2CCCC2)c(-c2ccc(SCCCC(=O)O)c(F)c2)c1 [Example 195]: 200 to 2000 nM
- O=C(O)CCCOc1c(F)cc(-c2ccccc2OCC2CC2)cc1F [Example 54]: < 200 nM
- O=C(O)CCCOc1ccc(-c2ccccc2OC2CCCC2)cc1 [Example 56]: 200 to 2000 nM
- CC(C)Oc1cccc(-c2ccc(SCCCC(=O)O)cc2)n1 [Example 130]: < 200 nM
- CC(C)Oc1ncccc1-c1ccc(SC(C)CCC(=O)O)cc1 (stereo not shown) [Example 200]: 200 to 2000 nM
- CC(CCC(=O)O)Sc1c(F)cc(-c2cccnc2OC2CCCC2)cc1F (stereo not shown) [Example 201]: < 200 nM
- O=C(O)CCCOc1ccc(-c2ccccc2OCC2CC2)cc1 [Example 58]: 200 to 2000 nM
- Cc1cnc(OC2CCCC2)c(-c2cc(F)c(SCCCC(=O)O)c(F)c2)c1 [Example 198]: < 200 nM
- O=C(O)CCCOc1c(F)cc(-c2ccccc2CC2CCC2)cc1F [Example 101]: < 200 nM
- O=C(O)CCCOc1c(F)cc(-c2cccnc2OCC2CCCC2)cc1F [Example 229]: < 200 nM
- O=C(O)CCCOc1cc(F)c(-c2cccnc2SC2CCC2)cc1F [Example 61]: 200 to 2000 nM
